The measured values listed here are drawn from the Immune Epitope Database (IEDB).

tested_system: HLA-A*24:02
assay_protocol: IEDB peptide-MHC binding, purified MHC/competitive/radioactivity; filed as Kd, often an IC50 or EC50 that approximates it; bounds were set here for any values at or beyond the usual limits of such assays
experimental_context: source organism: Dengue virus 2 Jamaica/1409/1983
measured_metric: Kd (nM)
// return numeric value only (unit: nM, not printed)

Example entries begin here.
biosequence | tested_system | unit_abbreviation | Kd
QMAMTDTTPF | HLA-A*24:02 | nM | 3560
RWFVERNMVT | HLA-A*24:02 | nM | 855

Below: the item to evaluate.
Provide the documented Kd with HLA-A*24:02 as the system for KYQLAVTIM
29.2

====

tested_system: HLA-A*26:01
assay_protocol: IEDB peptide-MHC binding, purified MHC/competitive/radioactivity; filed as Kd, often an IC50 or EC50 that approximates it; bounds were set here for any values at or beyond the usual limits of such assays
experimental_context: source organism: Dengue virus 2 Jamaica/1409/1983
measured_metric: pKd
Note on units: pKd is unitless, being -log10 of a concentration expressed in mol/L.

For the record DTITYKCPLL , what value of pKd is listed for HLA-A*26:01?
5.68

====

tested_system: HLA-C*14:02
assay_protocol: IEDB peptide-MHC binding, purified MHC/direct/fluorescence; filed as Kd, often an IC50 or EC50 that approximates it; bounds were set here for any values at or beyond the usual limits of such assays
experimental_context: source organism: Toxoplasma gondii
measured_metric: pKd
A value of pKd is the negative decimal logarithm of a concentration given in moles per litre.

Requested read-out: pKd. Entry: RTWFYRTEF
6.82

====

tested_system: HLA-A*02:01
assay_protocol: IEDB peptide-MHC binding, purified MHC/direct/fluorescence; filed as Kd, often an IC50 or EC50 that approximates it; bounds were set here for any values at or beyond the usual limits of such assays
experimental_context: source organism: Vibrio vulnificus YJ016
pKd: −log10 of the molar value.
measured_metric: pKd

Request the reported pKd associated with DAYGFHNYK
≤ 4.70

====

tested_system: HLA-B*58:01
assay_protocol: IEDB peptide-MHC binding, purified MHC/direct/fluorescence; filed as Kd, often an IC50 or EC50 that approximates it; bounds were set here for any values at or beyond the usual limits of such assays
experimental_context: source organism: Vibrio parahaemolyticus
measured_metric: Kd (nM)
Respond numerically; units are nM and should not be typed.

# input sequence: MSSAMSMMH ; wanted: its Kd
624

====

tested_system: HLA-A*69:01
assay_protocol: IEDB peptide-MHC binding, purified MHC/direct/fluorescence; filed as Kd, often an IC50 or EC50 that approximates it; bounds were set here for any values at or beyond the usual limits of such assays
experimental_context: source organism: Cryptosporidium parvum
measured_metric: Kd

What measured Kd is associated with KHNSAESAK on HLA-A*69:01?
≥ 20 µM

====

tested_system: HLA-B*58:01
assay_protocol: IEDB peptide-MHC binding, purified MHC/direct/fluorescence; filed as Kd, often an IC50 or EC50 that approximates it; bounds were set here for any values at or beyond the usual limits of such assays
experimental_context: source organism: Bacillus anthracis
measured_metric: pKd
Worth noting: pKd values are minus log10 of concentrations stated in mol/L.

What reported pKd corresponds to CSTLPFHTW on HLA-B*58:01?
8.42

====

tested_system: HLA-B*57:01
assay_protocol: IEDB peptide-MHC binding, purified MHC/competitive/fluorescence; filed as Kd, often an IC50 or EC50 that approximates it; bounds were set here for any values at or beyond the usual limits of such assays
experimental_context: source organism: Mycobacterium tuberculosis variant bovis BCG str. Pasteur 1173P2
measured_metric: Kd

What does the data say about its Kd? Entry: AEDLADHHV
≥ 20 µM

====

tested_system: HLA-B*35:01
assay_protocol: IEDB peptide-MHC binding, purified MHC/competitive/fluorescence; filed as Kd, often an IC50 or EC50 that approximates it; bounds were set here for any values at or beyond the usual limits of such assays
experimental_context: source organism: Escherichia coli O139:H28 str. E24377A
measured_metric: Kd (nM)
Please respond with the number in nM and leave the unit unwritten.

Reported Kd for EIVAEYITY : what is it?
6.6

====

tested_system: HLA-B*08:01
assay_protocol: IEDB peptide-MHC binding, purified MHC/direct/fluorescence; filed as Kd, often an IC50 or EC50 that approximates it; bounds were set here for any values at or beyond the usual limits of such assays
experimental_context: source organism: SARS-CoV1
measured_metric: pKd
FYI, pKd means -log10 of a concentration in mol per litre.

Which pKd is reported for this sequence? SLAIDAYPL
5.04

====

tested_system: HLA-B*27:05
assay_protocol: IEDB peptide-MHC binding, purified MHC/direct/fluorescence; filed as Kd, often an IC50 or EC50 that approximates it; bounds were set here for any values at or beyond the usual limits of such assays
experimental_context: source organism: Escherichia coli 536
measured_metric: Kd

Quick one: Kd for RYICPVQQI ?
≥ 20 µM

====

tested_system: HLA-B*15:17
assay_protocol: IEDB peptide-MHC binding, purified MHC/competitive/fluorescence; filed as Kd, often an IC50 or EC50 that approximates it; bounds were set here for any values at or beyond the usual limits of such assays
experimental_context: source organism: Giardia lamblia ATCC 50803
measured_metric: Kd

Fill in the blank: the reported Kd of LPVFATIGL is ____.
≥ 20 µM

====

tested_system: HLA-A*69:01
assay_protocol: IEDB peptide-MHC binding, purified MHC/direct/fluorescence; filed as Kd, often an IC50 or EC50 that approximates it; bounds were set here for any values at or beyond the usual limits of such assays
experimental_context: source organism: Yersinia enterocolitica
measured_metric: Kd

For the sequence shown here, RIYSHIAPY , give the reported Kd.
≥ 20 µM

====

Quick reference for pKd among some sequences
tested_system: HLA-A*30:01
assay_protocol: IEDB peptide-MHC binding, purified MHC/competitive/radioactivity; filed as Kd, often an IC50 or EC50 that approximates it; bounds were set here for any values at or beyond the usual limits of such assays
experimental_context: source organism: Dengue virus 4 Philippines/H241/1956
Conceptually, pKd converts a concentration in mol/L into minus its log10.

biosequence | tested_system | pKd
KILAKAIFK | HLA-A*30:01 | 6.53

// below: pKd requested for another sequence
Please give the measured pKd for this sequence: TTRHRKPTY
5.93

====

tested_system: HLA-C*14:02
assay_protocol: IEDB peptide-MHC binding, purified MHC/competitive/fluorescence; filed as Kd, often an IC50 or EC50 that approximates it; bounds were set here for any values at or beyond the usual limits of such assays
experimental_context: source organism: human gammaherpesvirus 4
measured_metric: Kd (nM)
Output spec: scalar in nM, unitless text.

What Kd appears in the records for this sequence with HLA-C*14:02? YAMAIRQAI
42.6

====

tested_system: HLA-B*39:01
assay_protocol: IEDB peptide-MHC binding, purified MHC/competitive/fluorescence; filed as Kd, often an IC50 or EC50 that approximates it; bounds were set here for any values at or beyond the usual limits of such assays
experimental_context: source organism: Escherichia coli O139:H28 str. E24377A
Entries and their Kd

biosequence | Kd
LAAEEILTL | ≥ 20 µM

Read the next record carefully.
Recall the recorded Kd for SIPFGLMSA with HLA-B*39:01 and state it.
≥ 20 µM

====

tested_system: HLA-A*03:01
assay_protocol: IEDB peptide-MHC binding, purified MHC/direct/fluorescence; filed as Kd, often an IC50 or EC50 that approximates it; bounds were set here for any values at or beyond the usual limits of such assays
experimental_context: source organism: Pasteurella multocida
pKd: −log10 of the molar value.
measured_metric: pKd

Please report the recorded pKd for NNKSRLVAF .
≤ 4.70

====

tested_system: HLA-B*48:01
assay_protocol: IEDB peptide-MHC binding, purified MHC/direct/fluorescence; filed as Kd, often an IC50 or EC50 that approximates it; bounds were set here for any values at or beyond the usual limits of such assays
experimental_context: source organism: West Nile virus
pKd: −log10 of the molar value.
measured_metric: pKd

For the sequence YRLRGEERK , what pKd is on record?
≤ 4.70

====

tested_system: HLA-A*26:01
assay_protocol: IEDB peptide-MHC binding, purified MHC/direct/fluorescence; filed as Kd, often an IC50 or EC50 that approximates it; bounds were set here for any values at or beyond the usual limits of such assays
experimental_context: source organism: Salmonella enterica subsp. enterica serovar Typhimurium
measured_metric: pKd
Scale: negative log10 of molar concentration, which is what pKd denotes.

# returns recorded pKd (system: HLA-A*26:01) for RVKLGLGIM
5.89

====

tested_system: HLA-A*02:01
assay_protocol: IEDB peptide-MHC binding, purified MHC/competitive/fluorescence; filed as Kd, often an IC50 or EC50 that approximates it; bounds were set here for any values at or beyond the usual limits of such assays
experimental_context: source organism: Variola virus
measured_metric: Kd (nM)
# number only, unit nM dropped from output

biosequence | tested_system | Kd, nM
RVFDKADGK | HLA-A*02:01 | 1050
MMPIKSIVTL | HLA-A*02:01 | 5.1

Next up:
Look at this sequence and give its reported Kd. SLYNLVKSSV
3.2
